- System: ragweed
- TEST: Test C postemergence
- Assay type: in vivo, Ambrosia artemisiifolia
- APPLIED_CONDITIONS: Postemergence, 500 g ai/ha, 10 days, visual 0 to 100 scale (0 no effect, 100 complete control)
PARAMETER: Plant response rating, Ragweed

[[record]]
molecule = "Cc1ccc(-n2cnc(C[S+](C)[O-])n2)cc1C(=O)N1C[C@H](C)Oc2c(Cl)cccc21 (some centres unmarked)"
numeric_readout = 70

[[record]]
molecule = "CC(C)c1ncn(-c2cc3c(c(C(=O)N4C[C@H](C)Oc5c(Cl)cccc54)c2)CCC3)n1"
numeric_readout = 70

[[record]]
molecule = "CCc1ncn(-c2ccc(OC)c(C(=O)N3C[C@H](COC)Oc4c(Cl)cccc43)c2)n1"
numeric_readout = 70

[[record]]
molecule = "COc1cc(C(=O)N2C[C@H](C)Oc3c(Cl)cccc32)cc(-n2cnc(C(C)C)n2)c1"
numeric_readout = 70

[[record]]
molecule = "COc1cc(C(=O)N2C[C@H](C)Oc3c(Cl)cccc32)cc(-n2cnc(C)n2)c1"
numeric_readout = 70

